Target: EGFR^L858R (Homo sapiens, UniProt P00533, L858R)
Sequence (P00533 25-1210 L858R): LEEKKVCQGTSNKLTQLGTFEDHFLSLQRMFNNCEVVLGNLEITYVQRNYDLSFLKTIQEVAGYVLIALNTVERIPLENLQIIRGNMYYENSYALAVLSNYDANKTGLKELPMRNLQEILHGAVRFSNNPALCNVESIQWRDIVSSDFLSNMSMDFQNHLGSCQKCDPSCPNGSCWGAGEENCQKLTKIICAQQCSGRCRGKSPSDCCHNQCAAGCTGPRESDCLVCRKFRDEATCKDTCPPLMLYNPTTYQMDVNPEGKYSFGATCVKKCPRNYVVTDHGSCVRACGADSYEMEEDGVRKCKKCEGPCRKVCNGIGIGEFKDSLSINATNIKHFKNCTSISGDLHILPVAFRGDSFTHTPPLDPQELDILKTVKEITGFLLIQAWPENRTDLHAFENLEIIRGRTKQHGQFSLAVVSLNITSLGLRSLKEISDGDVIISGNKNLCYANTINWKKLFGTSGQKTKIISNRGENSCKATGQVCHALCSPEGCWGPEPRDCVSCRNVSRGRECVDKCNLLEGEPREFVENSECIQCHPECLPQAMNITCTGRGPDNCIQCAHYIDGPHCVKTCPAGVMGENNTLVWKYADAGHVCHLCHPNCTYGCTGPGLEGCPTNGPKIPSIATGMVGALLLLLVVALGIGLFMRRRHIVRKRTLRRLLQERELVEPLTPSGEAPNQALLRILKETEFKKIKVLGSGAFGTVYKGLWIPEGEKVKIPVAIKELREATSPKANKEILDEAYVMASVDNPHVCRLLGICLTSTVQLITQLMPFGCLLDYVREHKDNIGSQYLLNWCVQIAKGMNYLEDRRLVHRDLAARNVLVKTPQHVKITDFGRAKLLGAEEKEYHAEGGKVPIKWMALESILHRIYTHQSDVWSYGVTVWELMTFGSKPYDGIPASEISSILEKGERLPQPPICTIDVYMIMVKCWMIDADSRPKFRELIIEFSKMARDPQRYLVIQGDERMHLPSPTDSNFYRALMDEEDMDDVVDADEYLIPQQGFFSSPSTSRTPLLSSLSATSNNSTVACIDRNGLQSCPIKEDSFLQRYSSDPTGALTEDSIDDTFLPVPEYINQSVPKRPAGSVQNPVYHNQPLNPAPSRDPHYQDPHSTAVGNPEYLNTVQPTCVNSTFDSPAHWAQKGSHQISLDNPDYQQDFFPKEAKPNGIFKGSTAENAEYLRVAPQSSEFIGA
Assay: in vitro kinase assay (HTRF KinEASE-TK kit), L
Conditions: kinase inhibition
Source text: Assays using an in vitro kinase assay kit (HTRF KinEASE-TK kit) can be used to study the inhibitory activity of compounds described herein with respect to EGFR mutants such as EGFR^L858R, EGFR^L58R/T790M, and EGFR^L858R/T790M/C^797S.
pIC50: −log10 of the molar value.
Examples of compounds with documented pIC50 follow.

CCCN(C)Cc1ccc(-c2nn3c4cc(ncc24)Nc2ccnc(n2)-c2cnn(C)c2OCC[C@@H]3C)n1C [(138)]    > 8.00
CCN(CC)CCOc1cc(-c2nn3c4cc(ncc24)Nc2ccnc(n2)-c2cnn(C)c2OCC[C@@H]3C)ccc1F [(149)]    > 8.00
C[C@H]1CCOc2c(cnn2C)-c2nccc(n2)Nc2cc3c(cn2)c(N2CC[C@@H](O)C2)nn31 [(112)]    > 8.00
C[C@H]1CCOc2c(cnn2C)-c2nccc(n2)Nc2cc3c(cn2)c(-c2cc(OCCN(C)C)ccc2F)nn31 [(130)]    7.00 to 8.00
CN1CCN(CC2CCCN2c2nn3c4cc(ncc24)Nc2ccnc(n2)-c2cnn(C)c2OCCC3)CC1 (stereo not drawn) [(10)]    6.00 to 7.00
CCn1cc(-c2nn3c4cc(ncc24)Nc2ccnc(n2)-c2cnn(C)c2OCCC3C)cc1CN1CCN(C)CC1 (stereo not drawn) [(76)]    > 8.00
C[C@H]1CCOc2c(cnn2C)-c2nccc(n2)Nc2cc3c(cn2)c(-c2ncc(CN4CCOCC4)s2)nn31 [(143)]    7.00 to 8.00
CCN(CC)C1CCN(c2cc(F)cc(-c3nn4c5cc(ncc35)Nc3ccnc(n3)-c3cnn(C)c3OCC[C@@H]4C)c2)CC1 [(141)]    > 8.00

Task: What value of measured pIC50 is listed for C[C@H]1CCOc2c(cnn2C)-c2nccc(n2)Nc2cc3c(cn2)c(-c2cccc(N4CCC(N(C)C)CC4)c2)nn31 [(108)] ?
Result: > 8.00

Task: Fill in the blank: the reported pIC50 of CC(C)N(C)Cc1ccc(-c2nn3c4cc(ncc24)Nc2ccnc(n2)-c2cnn(C)c2OCC[C@@H]3C)n1C [(189)] is ____.
Result: > 8.00

Task: Looking for the measured pIC50 of CC1CCCOc2c(cnn2C)-c2nccc(n2)Nc2cc3c(cn2)c(-c2ccnn2C)nn31 (stereo not drawn) [(75)] , can you help?
Result: 7.00 to 8.00

Task: Can you look up the measured pIC50 of C[C@H]1CCOc2c(cnn2C)-c2nccc(n2)Nc2cc3c(cn2)c(-c2ncc(CN4CCN(C)CC4)s2)nn31 [(107)] for me?
Result: > 8.00

----------
Reported values of IC50 for individual entries
Test system: Ba/F3 Parental
Assay: Ba/F3 viability assay (CellTiter-Glo), parental
Assay type: cell-based
Conditions: Mus musculus, BaF3, anti-proliferation

CC1CCOc2c(cnn2C)-c2nccc(n2)Nc2cc3c(cn2)c(-c2cccn2CCN(C)C)nn31 (stereo not drawn)    100 to 1000 nM

Task: What does the record list as IC50 for `C[C@H]1CCOc2c(cnn2C)-c2nccc(n2)Nc2cc3c(cn2)c(-c2ncc(CN4CCOCC4)s2)nn31` ?
Result: ≥ 1000 nM

Task: What value of IC50 has been reported for the following compound? `C[C@H]1CCOc2c(cnn2C)-c2nccc(n2)Nc2cc3c(cn2)c(-c2cccc(OCCN(C)C)c2)nn31`
Result: 100 to 1000 nM

Task: Any idea what its IC50 is? The compound is `C[C@H]1CCOc2c(cnn2C)-c2nccc(n2)Nc2cc3c(cn2)c(-c2cccc(N4CCC(N5CCOCC5)CC4)c2)nn31`
Result: 100 to 1000 nM

Task: Request the reported IC50 associated with `C[C@H]1CCOc2c(cnn2C)-c2nccc(n2)Nc2cc3c(cn2)c(-c2cccc(CCN4CCOCC4)c2)nn31`
Result: 100 to 1000 nM

Task: Param item = `C[C@H]1CCOc2c(cnn2C)-c2nccc(n2)Nc2cc3c(cn2)c(-c2ccc(CN4CCOCC4)n2C)nn31` ; retrieve measured IC50.
Result: 100 to 1000 nM

Task: What value of IC50 has been reported for the following compound? CC(C)N1CCN(CC2CCN(c3nn4c5cc(ncc35)Nc3ccnc(n3)-c3cnn(C)c3OCC[C@@H]4C)C2)CC1 (stereo partly drawn)
Result: 10 to 100 nM

Task: Request the reported IC50 associated with `Cc1cc(-c2nn3c4cc(ncc24)Nc2ccnc(n2)-c2cnn(C)c2OCC[C@@H]3C)oc1CN(C)C`
Result: 100 to 1000 nM

Task: Name the reported IC50 value associated with the compound `CCn1cc(-c2nn3c4cc(ncc24)Nc2ccnc(n2)-c2cnn(C)c2OCC[C@@H]3C)cc1CN(C)C`
Result: 100 to 1000 nM

Task: May I ask what IC50 has been recorded for `C[C@H]1CCOc2c(cnn2C)-c2nccc(n2)Nc2cc3c(cn2)c(N2CCN(C4CC4)CC2)nn31` ?
Result: ≥ 1000 nM

Task: I'd like to know its IC50. The compound in question is `C[C@H]1CCOc2c(cnn2C)-c2nccc(n2)Nc2cc3c(cn2)c(-c2cnn(CCN4CCOCC4)c2)nn31`
Result: 100 to 1000 nM

Task: What does the data say about its IC50? Entry: `CCN(CC)C1CCN(c2cc(F)cc(-c3nn4c5cc(ncc35)Nc3ccnc(n3)-c3cnn(C)c3OCC[C@@H]4C)c2)CC1`
Result: 100 to 1000 nM

Task: Give its IC50 value. Item: Cn1ncc2c1OCCCn1nc(N3CCCC3C(=O)O)c3cnc(cc31)Nc1ccnc-2n1 (stereo not drawn)
Result: 100 to 1000 nM

Task: Value lookup for IC50; key = `COCCN(C)Cc1ccc(-c2nn3c4cc(ncc24)Nc2ccnc(n2)-c2cnn(C)c2OCC[C@@H]3C)n1C`
Result: 100 to 1000 nM

Task: For the compound shown here, `C[C@H]1CCOc2c(cnn2C)-c2nccc(n2)Nc2cc3c(cn2)c(-c2ccc(F)c(OCCN(C)C)c2)nn31` , give the reported IC50.
Result: 100 to 1000 nM
